Hello, the source for this data is patent US20230398126A1, in case you need it.

CC50 for assorted molecules
assay_overview: in vitro
experimental_context: African green monkey

INSERT INTO assay_data (molecule, assay_readout, recorded_value) VALUES
  ('Cc1ccccc1CN1CCCN(c2cccc(NC(=O)c3cccs3)c2)C1=O', 'CC50', '> 1280 µM'),
  ('Cc1ccc(CN2CCCN(c3ccc(NC(=O)c4ccccc4C)cn3)CC2)cc1', 'CC50', '692 µM'),
  ('Cc1cc(C)c(C)c(S(=O)(=O)N2CCC(c3c[nH]c4c(C)cccc34)CC2)c1C', 'CC50', '> 1280 µM'),
  ('Cc1nn(-c2ccccc2)c2sc(C(=O)NC(C)C)cc12', 'CC50', '> 1280 µM'),
  ('CC(Cl)C(=O)N1CCN(c2nccc(-c3ccc(C(C)(C)C)cc3)n2)CC1 (centres unmarked)', 'CC50', '168 µM'),
  ('CN1C(=O)c2cccnc2Sc2cc(C(=O)Nc3ccc(Cl)cc3)ccc21', 'CC50', '320 µM'),
  ('CC(Cl)C(=O)N1CCCN(c2nc3ccccc3nc2-c2ccccc2)CC1 (centres unmarked)', 'CC50', '363 µM');

Query: Quote CC50 reported for NC(=O)c1ccc2c(c1)n(Cc1cccc(F)c1)c(=O)c1ccnn12 please.
Reply: > 1280 µM
